Target Desc: T1, Recombinant, Human EphA2 with C-terminal hexahistidine appended (human, UniProt P29317 25-534)
T1 construct: Captured on anti-His5 sensors; also called his-tagged recombinant, human EphA
T1 sequence (P29317 other isoform, or with tags, fused parts or gaps limits assumed): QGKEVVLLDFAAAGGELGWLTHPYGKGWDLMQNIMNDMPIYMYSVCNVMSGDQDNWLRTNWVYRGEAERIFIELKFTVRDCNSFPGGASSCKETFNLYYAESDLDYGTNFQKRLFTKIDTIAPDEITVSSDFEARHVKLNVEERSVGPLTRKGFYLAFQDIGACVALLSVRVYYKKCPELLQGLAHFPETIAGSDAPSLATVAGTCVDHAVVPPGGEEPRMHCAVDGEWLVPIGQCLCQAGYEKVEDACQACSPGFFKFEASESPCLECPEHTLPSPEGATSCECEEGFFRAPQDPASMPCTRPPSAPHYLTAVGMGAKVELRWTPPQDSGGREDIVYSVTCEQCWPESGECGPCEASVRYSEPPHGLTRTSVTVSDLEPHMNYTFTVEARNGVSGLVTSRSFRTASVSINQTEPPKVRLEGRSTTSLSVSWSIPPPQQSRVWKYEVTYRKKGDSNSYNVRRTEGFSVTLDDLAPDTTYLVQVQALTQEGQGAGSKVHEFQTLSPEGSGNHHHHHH
Assay Info: BLI (Octet Red96), EphA2-His on anti-His5 sensors, liposomes with inserted conjugate
Assay Readout: EphA2 binding strength compared to control liposomes

Binder: anti-EphA2 Fab 14 (IgG1 G44C, F174C, C233S heavy chain; lambda G100C, S176C, C214S light chain), Fab-PEG-DSPE conjugate (Fab, V domains shown, mal-PEG(2000)-DSPE linker conjugated to the C-terminal cysteine of the heavy chain (Cys in DKTHTCAA)) VH: QVQLVQSGGGLVQPGGSLRLSCAASGFTFSSYAMHWVRQAPGKCLEWVTVISPDGHNTYYADSVKGRFTISRDNSKNTLYLQMNSLRAEDTAVYYCARASVGATGPFDIWGQGTLVTVSS VL: SSELTQPPSVSVAPGQTVTITCQGDSLRSYYASWYQQKPGTAPKLLIYGENNRPSGVPDRFSGSSSGTSASLTITGAQAEDEADYYCNSRDSSGTHLTVFGCGTKLTVLG
Result: > 80%
--
Binder: anti-EphA2 Fab 18 (IgG1 G44L, H172E, F174C, C233S heavy chain; lambda G100L, T162D, S176C, C214S light chain), Fab-PEG-DSPE conjugate (Fab, V domains shown, mal-PEG(2000)-DSPE linker conjugated to the C-terminal cysteine of the heavy chain (Cys in DKTHTCAA)) VH: QVQLVQSGGGLVQPGGSLRLSCAASGFTFSSYAMHWVRQAPGKLLEWVTVISPDGHNTYYADSVKGRFTISRDNSKNTLYLQMNSLRAEDTAVYYCARASVGATGPFDIWGQGTLVTVSS VL: SSELTQPPSVSVAPGQTVTITCQGDSLRSYYASWYQQKPGTAPKLLIYGENNRPSGVPDRFSGSSSGTSASLTITGAQAEDEADYYCNSRDSSGTHLTVFGLGTKLTVLG
Result: > 80%
--
Binder: anti-EphA2 Fab 15 (IgG1 H172E, F174C, C233S heavy chain; lambda T162D, S176C, C214S light chain), Fab-PEG-DSPE conjugate (Fab, V domains shown, mal-PEG(2000)-DSPE linker conjugated to the C-terminal cysteine of the heavy chain (Cys in DKTHTCAA)) VH: QVQLVQSGGGLVQPGGSLRLSCAASGFTFSSYAMHWVRQAPGKGLEWVTVISPDGHNTYYADSVKGRFTISRDNSKNTLYLQMNSLRAEDTAVYYCARASVGATGPFDIWGQGTLVTVSS VL: SSELTQPPSVSVAPGQTVTITCQGDSLRSYYASWYQQKPGTAPKLLIYGENNRPSGVPDRFSGSSSGTSASLTITGAQAEDEADYYCNSRDSSGTHLTVFGGGTKLTVLG
Result: > 80%
